System: Streptococcus sp. 'group A'
Experiment: growth inhibition of control SK(-) GAS strain, dose response, counter-screen for streptokinase expression inhibitor project, luminescence, kanamycin, BacTiterGlo, confirmation (AID 1900)
Format: functional, organism-based
Counter-ions that a name gives are not always drawn. Activity calls are given as the source filed them.
QUANTITY_MEASURED: EC50

COMPOUND | SYSTEM_TESTED | RECORDED_VALUE
CN(C)[C@@H]1C(O)=C(C(N)=O)C(=O)[C@@]2(O)C(O)=C3C(=O)c4c(O)ccc(Cl)c4[C@@](C)(O)[C@H]3C[C@@H]12 [CHLORTETRACYCLINE HYDROCHLORIDE] | Streptococcus sp. 'group A' | < 0.06 µM (active)
O=C(Oc1cccc2c(O)cccc12)c1ccccc1 | Streptococcus sp. 'group A' | 29 µM (active)
CC1CCN(c2nc(-c3ccccc3)cc(C(F)(F)F)n2)CC1 | Streptococcus sp. 'group A' | 3.73 µM (active)
O=C(O)COc1ccc(/C=N/Nc2nc(Nc3ccccc3)nc(N3CCCCC3)n2)cc1 | Streptococcus sp. 'group A' | 18.2 µM (active)
O=[N+]([O-])c1cccc(/C=N/Nc2nc(N3CCCCC3)nc(N3CCCCC3)n2)c1 | Streptococcus sp. 'group A' | 33.5 µM (active)
COc1ccc(/C=N/n2c(C)nc3c4ccccc4nc-3c2O)cc1CN1CCCC(C)(C)C1 | Streptococcus sp. 'group A' | 10.9 µM (active)

* * *

Assay: Luminescence Cell-Based Dose Response HTS to Identify Activators of Luciferase Translation or Activity in H4 […] Cells. [Related pubchem assays: 1829 (Project Summary), 1814 (Primary HTS)]
Type: functional
Active and inactive are the calls of the source.

MOLECULE | EC50
O=c1c2ccccc2nnn1COc1ccc(Cl)cc1Br | 29.7 µM (active)
O=C(CN1C(=O)C2C3C=CC(C3)C2C1=O)Nc1ccc2c(c1)OCCO2 (centres undefined) | 22.4 µM (active)
c1ccc(-c2ccc3c(n2)CCCO3)cc1 | 55.5 µM (active)
COCCNC(=O)C(c1ccncc1)N(Cc1ccccc1)C(=O)Cn1nnc2ccccc21 (centres undefined) | 15.7 µM (active)

* * *

Target: Small ubiquitin-related modifier 1 (Homo sapiens)
Sequence (P63165 whole entry): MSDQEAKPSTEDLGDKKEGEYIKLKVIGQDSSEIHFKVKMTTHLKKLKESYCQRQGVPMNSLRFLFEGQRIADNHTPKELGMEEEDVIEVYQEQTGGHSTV
Assay: inhibitors of SUMO1 peptide binding, dose response, biochemical, fluorescence polarization, uHTS hits (AID 624382)
Assay type: functional
Conditions: read-out: IC50_Mean
Activity calls are given as the source filed them.
Outcome codes: active, inactive

COMPOUND | SYSTEM_TESTED | CLASS_ASSIGNMENT
O=C(Nc1ccc(Nc2ccncc2)cc1)c1ccc(Nc2ccnc3ccc([N+](=O)[O-])cc23)cc1 | Small ubiquitin-related modifier 1 (Homo sapiens) | inactive
CC1=C(C(=O)OC(C)C)C(c2ccc(Cl)cc2)n2c(s/c(=C\c3ccc(OCC(=O)O)cc3)c2=O)=N1 (stereo not given) | Small ubiquitin-related modifier 1 (Homo sapiens) | inactive
CCc1ccccc1Nc1nn2c(=O)c3ccc(C(=O)NCc4ccccn4)cc3nc2s1 | Small ubiquitin-related modifier 1 (Homo sapiens) | inactive
O=C(CSc1nc(-c2ccccc2)nc2c1Cc1ccccc1O2)Nc1ccc(C(=O)O)cc1 | Small ubiquitin-related modifier 1 (Homo sapiens) | inactive
CCOc1ccc(C=NNc2ccc(S(=O)(=O)Nc3ccccc3C(=O)O)cc2[N+](=O)[O-])cc1 | Small ubiquitin-related modifier 1 (Homo sapiens) | active

* * *

Each entry below carries its reported AC50.
Molecular target: Cytochrome P450 3A4 (Homo sapiens, UniProt P08684);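 also: CYP3A4 tested as one member of a cytochrome P450 panel screen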
Sequence (P08684 whole entry): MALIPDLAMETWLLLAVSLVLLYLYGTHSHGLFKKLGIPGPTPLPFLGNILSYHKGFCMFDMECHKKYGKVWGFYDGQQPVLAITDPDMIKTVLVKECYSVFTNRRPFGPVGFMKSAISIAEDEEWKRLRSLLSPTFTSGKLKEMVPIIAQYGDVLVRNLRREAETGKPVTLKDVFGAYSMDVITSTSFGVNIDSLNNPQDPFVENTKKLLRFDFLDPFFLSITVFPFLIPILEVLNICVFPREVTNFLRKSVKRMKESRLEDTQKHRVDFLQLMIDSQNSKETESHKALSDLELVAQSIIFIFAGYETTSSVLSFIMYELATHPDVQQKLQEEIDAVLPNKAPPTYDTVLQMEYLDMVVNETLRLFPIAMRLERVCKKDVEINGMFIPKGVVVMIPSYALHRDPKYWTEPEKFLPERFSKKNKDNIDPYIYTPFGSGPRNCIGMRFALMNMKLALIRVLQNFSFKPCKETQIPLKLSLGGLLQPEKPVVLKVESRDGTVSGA

MOLECULE | AC50
N#Cc1ccc(CN2CCC3(CC2)CCN(C(=O)c2ccncc2)CC3)cc1 | 12.6 µM (inconclusive)
Cc1ccc(-c2csc(NC(=S)NC(=O)/C=C/c3ccco3)n2)cc1 | 15.8 µM (inconclusive)
Cc1c(C(=O)N/N=C/c2ccccc2)sc(=S)n1C | 25.1 µM (inconclusive)
CCNc1ncc2nc(-c3ccccc3)c(=O)n(Cc3ccc(F)cc3)c2n1 | 20 µM (inconclusive)
CC(C)C(=O)Nc1cc2c(cc1C(=O)c1ccccc1)OCCO2 | 22.4 µM (inconclusive)
CCOc1ccc(N(C(C)C(=O)NC(C)CC)S(C)(=O)=O)cc1 (stereo not given) | 14.1 µM (inconclusive)
Cc1ccc(C(=O)NC2CCCCCC2)cc1N1CCCC1=O | 25.1 µM (inconclusive)
COc1ccc(-c2nc3cnc(N4CCNCC4)nc3n(CCC#N)c2=O)cc1 | 12.6 µM (inconclusive)
Cc1cc(C)c(C#N)c(SCC(=O)c2ccc(Cl)cc2Cl)n1 | 17.8 µM (inconclusive)
COc1ccc(/C=C\C(=O)Nc2ccccc2C(=O)O)cc1OC | 39.8 µM (inconclusive)
O=C(NCCCN1CCCC1=O)Nc1ccc(F)c(Cl)c1 | 28.2 µM (inconclusive)
O=C1C(Cc2ccccc2)NC(=S)N1c1ccccc1 (stereo not given) | 2.24 µM (inconclusive)
C=CCC(C)(NCc1ccccc1)c1ccco1 (stereo not given) | 15.8 µM (inconclusive)
COc1ccc(/C=N/NC(=S)NC2CCS(=O)(=O)C2)cc1OC (stereo not given) | 22.4 µM (inconclusive)
Nc1nc(SCc2ccc([N+](=O)[O-])cc2)c2ncn([C@@H]3O[C@@H](CO)[C@@H](O)[C@H]3O)c2n1 | 15.8 µM (inconclusive)

* * *

For reference, AC50 measured on Cytochrome P450 1A2 (Homo sapiens, UniProt P05177):
QUANTITY_MEASURED: AC50

COMPOUND | QUANTITY_MEASURED | RECORDED_VALUE
N#CCCn1c(=O)cnc2cnc(Oc3ccccc3)nc21 | AC50 | 15.8 µM (inconclusive)
CCCS(=O)(=O)N1CCCC(C(=O)NCCCN2CCN(c3cccc(Cl)c3)CC2)C1 (stereo not drawn) | AC50 | 0.00631 µM (inconclusive)
CCCn1c(=O)c2[nH]c(-c3ccc(OCC(=O)Nc4ccc(C#N)cc4)cc3)nc2n(CCC)c1=O | AC50 | 31.6 µM (inconclusive)
O=C(NCCCN1CCCC1=O)Nc1ccc(F)c(Cl)c1 | AC50 | 22.4 µM (inconclusive)
COc1ccc(/C=N/NC(=O)c2sccc2OCc2ccc(F)cc2)cc1OC | AC50 | 14.1 µM (inconclusive)
COc1ccc2c(c1)C(=O)N(c1ccccc1)C(=O)C2 | AC50 | 25.1 µM (inconclusive)
CCOc1cc(/C=C2\CCC/C(=C\c3cc(Cl)c(O)c(OCC)c3)C2=O)cc(Cl)c1O | AC50 | 10 µM (inconclusive)
CC(=O)c1ccc(N2CCC(c3cc(-c4ccc(Cl)cc4Cl)n[nH]3)CC2)c([N+](=O)[O-])c1 | AC50 | 14.1 µM (inconclusive)
CCNc1ncc2nc(-c3ccccc3)c(=O)n(Cc3ccc(F)cc3)c2n1 | AC50 | 3.16 µM (inconclusive)
COc1ccc(/C=C\C(=O)Nc2ccccc2C(=O)O)cc1OC | AC50 | 39.8 µM (inconclusive)
CCC(=O)Nc1cc(-c2nn(C)c(=O)c3ccccc23)ccc1N1CCCCC1 | AC50 | 28.2 µM (inconclusive)
S=C1NCN2CCN(CC2)CNC(=S)C(=S)NCN2CCN(CC2)CNC1=S | AC50 | 3.16 µM (inconclusive)
COc1ccc(-c2nc3cnc(N4CCNCC4)nc3n(CCC#N)c2=O)cc1 | AC50 | 15.8 µM (inconclusive)
O=C1C(Cc2ccccc2)NC(=S)N1c1ccccc1 (stereo not drawn) | AC50 | 2.24 µM (inconclusive)
c1ccc(CN2CCC3(CCCc4ccccc43)CC2)cc1 | AC50 | 31.6 µM (inconclusive)
Cc1cc(C)c(S(=O)(=O)n2ccc(-c3ccc(OCCN(C)c4ccccn4)cc3)n2)c(C)c1 | AC50 | 14.1 µM (inconclusive)
COC(=O)N1CCC2(CCCN(c3ccccn3)C2)CC1 | AC50 | 25.1 µM (inconclusive)
C[C@@](N)(C(=O)O)c1cccc(CC(=O)O)c1 | AC50 | 39.8 µM (inconclusive)
O=C1C(O)=C(C2CCC(c3ccc(Cl)cc3)CC2)C(=O)c2ccccc21 (stereo not drawn) | AC50 | 10 µM (inconclusive)
O=C(CN1C(=O)C2C3C=CC(C3)C2C1=O)Nc1ccc2c(c1)OCCO2 (stereo not drawn) | AC50 | 15.8 µM (inconclusive)
O=c1c(-c2cc(F)cc(F)c2)nc2cnc(N3CCOCC3)nc2n1-c1ccccc1 | AC50 | 5.01 µM (inconclusive)
CC(C)Cn1c(=O)n(C)c(=O)c2[nH]cnc21 | AC50 | 20 µM (inconclusive)
O=C(CCN1CCCCC1)c1csc2ccccc12 | AC50 | 3.16 µM (inconclusive)
CC(C)NC(=O)N1CC2(CCN(C(=O)c3cc(C(F)(F)F)cc(C(F)(F)F)c3)CC2)C1 | AC50 | 12.6 µM (inconclusive)
CC(=O)NC1=NC(=O)CS1 | AC50 | 0.2 µM (inconclusive)
Cc1nc2nc(SCC(=O)NCc3ccco3)nn2c(C)c1Cc1c(F)cccc1Cl | AC50 | 20 µM (inconclusive)
CC(=O)c1cccc(NC(=O)/C(=C\c2ccco2)NC(=O)c2cccs2)c1 | AC50 | 14.1 µM (inconclusive)
CCCc1c(OCCCOc2ccc(OCC(=O)O)cc2)ccc(CC=O)c1O | AC50 | 31.6 µM (inconclusive)
